System: human A549 cells
Assay: Protective effect against cell injury induced by oxidized LDL in human A549 cells (LDH leakage)
Type: cell-based
Conditions: Homo sapiens, 3 μmol/L test compound, oxidized LDL 100 μg/mL, 24 hours, average ± standard error, read-out: % Cell protection in the case where oxidized LDL was added immediately after adding test compound
Answer each item with its documented inhibition at 3 µM.
Hi! Could you send only the number? It should be in %, unit omitted.

Lab note: CCCCCC1(CCCCC)Cc2c(cc(C)c(O)c2C)O1 [Compound 17] gave inhibition at 3 µM of 97.7

Lab note: CC(C)(C)c1cc2c(cc1O)CC1(CCCCCC1)O2 [Compound 18] gave inhibition at 3 µM of 96.2

Lab note: CC1(CN)Cc2c(cc(C(C)(C)C)c(O)c2C(C)(C)C)O1 (stereo not drawn) [Compound 5] gave inhibition at 3 µM of 6.9

---

Tested on: human A549 cells
Experiment: Protective effect against cell injury induced by oxidized LDL in human A549 cells (LDH leakage)
Assay type: cell-based
Conditions: Homo sapiens, 3 μmol/L test compound, oxidized LDL 100 μg/mL, 24 hours, average ± standard error, read-out: % Cell protection in the case where oxidized LDL was added immediately after adding test compound
Answer each item with its documented inhibition at 3 µM.
Hi! Could you send only the number? It should be in %, unit omitted.

Lab note: CC(C)(C)c1cc2c(c(C(C)(C)C)c1O)CC1(CCOCC1)O2 gave inhibition at 3 µM of 10.8

Lab note: Cc1cc2c(c(C)c1O)CC(C)(C)O2 gave inhibition at 3 µM of 36.1

Lab note: CCCCCC1(CCCCC)Cc2c(cc(C(C)(C)C)c(O)c2C(C)(C)C)O1 gave inhibition at 3 µM of 14.3

Lab note: CC(C)(C)c1cc2c(c(C(C)(C)C)c1O)CC1(CCSCC1)O2 gave inhibition at 3 µM of 4.6

Lab note: CC1(C)Cc2c(cc(C(C)(C)C)c(O)c2C(C)(C)C)O1 gave inhibition at 3 µM of 16.9

---

System: human A549 cells
Assay: Protective effect against cell injury induced by oxidized LDL in human A549 cells (LDH leakage)
Type: cell-based
Conditions: Homo sapiens, 3 μmol/L test compound, oxidized LDL 100 μg/mL, 24 hours, average ± standard error, read-out: % Cell protection in the case where oxidized LDL was added 6 hrs after adding test compound
QUANTITY_MEASURED: inhibition at 3 µM (%)
Hi! Could you send only the number? It should be in %, unit omitted.

Lab note: CC(C)(C)c1cc2c(c(C(C)(C)C)c1O)CC1(CCCC1)O2 gave inhibition at 3 µM of -1.6

Lab note: CCCCCC1(CCCCC)Cc2c(cc(C(C)(C)C)c(O)c2C(C)(C)C)O1 gave inhibition at 3 µM of 18.7

Lab note: CCCCCC1(CCCCC)Cc2c(cc(C)c(O)c2C)O1 gave inhibition at 3 µM of 97.8

Lab note: CC1(C)Cc2c(cc(C(C)(C)C)c(O)c2C(C)(C)C)O1 gave inhibition at 3 µM of 0.5

Lab note: CC(C)(C)c1cc2c(c(C(C)(C)C)c1O)CC1(CCCCCC1)O2 gave inhibition at 3 µM of 1.6

Lab note: CC(C)(C)c1cc2c(cc1O)CC1(CCCCCC1)O2 gave inhibition at 3 µM of 98.7

Lab note: CC(C)(C)c1cc2c(c(C(C)(C)C)c1O)CC1(CCCCC1)S2 gave inhibition at 3 µM of 10.8

Lab note: CC1(CN)Cc2c(cc(C(C)(C)C)c(O)c2C(C)(C)C)O1 (stereo not drawn) gave inhibition at 3 µM of 6.4

Lab note: Cc1cc2c(c(C)c1O)CC(C)(C)O2 gave inhibition at 3 µM of 30
